# reverse-splicing fitness values compiled below
B1: Azoarcus group I ribozyme (parent)
chain: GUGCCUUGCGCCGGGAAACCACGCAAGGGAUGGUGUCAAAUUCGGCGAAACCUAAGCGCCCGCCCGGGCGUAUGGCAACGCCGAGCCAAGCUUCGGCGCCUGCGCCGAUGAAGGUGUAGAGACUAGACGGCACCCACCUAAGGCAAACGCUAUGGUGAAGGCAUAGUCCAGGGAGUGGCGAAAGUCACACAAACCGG

variants of: B1; assay: reverse-splicing fitness (ratio to wild type); higher = more active; in vitro selection; Mg2+ level not given
Answer field: number only, no words.

Task item: Can you share its reverse-splicing fitness? I mean this variant: A120C A145G C150G U176A
Reply: 0.0905

Task item: So what's the measured reverse-splicing fitness for this one? C82G A111U A120C A145G C150A C169G
Reply: 0.00949

Task item: Suppose we examine the variant C82U A120G A145U U176G ; what reverse-splicing fitness value has been reported?
Reply: 0.00403
